Reference for the values: patent US20100184699A1

Tested on: peptide-specific IgG in plasma of prostate cancer patients and healthy donors
protocolDescription: Detection of peptide-specific IgG in plasma by ELISA
Assay type: binding, human
appliedConditions: Prostate cancer patients, Total
Field: IgG reactive to peptide in plasma, Total (positive/tested). Provide a value for each of the substances that follow.

WVLTAAHCIR [PSA 59-68]
0/20
RIYNVIGTLR [PSMA 354-363]
2/20
HYELGEYIR (PAP 78-86) [PAP-derived peptide]
1/20
SLYTKVVHYR [PSA 241-250]
0/20
EYFVEMYYR (PAP 324-332) [PAP-derived peptide]
1/20

Hi! Can you tell me IgG reactive to peptide in plasma, Total (positive/tested) for each of these substances?
1. DLVYVNYAR (PSMA 173-181) [PSMA-derived peptide]
2. VYIRSTDVDR (PAP 102-111) [PAP-derived peptide]
3. FIDPLGLPDR (PSMA 675-684) [PSMA-derived peptide]
4. PSMA 247-265 (NLPGGGVQRGNILNLNGAG; UniProt Q04609 247-265, looked up, fragment)
5. LYTKVVHYR (PSA 242-250) [PSA-derived peptide]
6. TLRGAVEPDR [PSMA 361-370]

1: 5/20; 2: 2/20; 3: 10/20; 4: 6/20; 5: 0/20; 6: 12/20

Hi! Can you tell me IgG reactive to peptide in plasma, Total (positive/tested) for each of these substances?
1. VTKFMLCAGR (PSA 192-201) [PSA-derived peptide]
2. PSMA 456-463 (IEGNYTLR; UniProt Q04609 456-463, looked up, fragment)
3. GTLKKEGWR (PSMA 403-411) [PSMA-derived peptide]
4. VLTAAHCIR [PSA 60-68]
5. YPANEYAYRR (PSMA 272-281) [PSMA-derived peptide]

1. 1/20
2. 9/20
3. 19/20
4. 3/20
5. 8/20

====

Field: IgG reactive to peptide in plasma, Total (positive/tested). Provide a value for each of the substances that follow.
Test system: peptide-specific IgG in plasma of prostate cancer patients and healthy donors
protocolDescription: Detection of peptide-specific IgG in plasma by ELISA
Format: binding, human
appliedConditions: Prostate cancer patients, Total

VTLVFRHGDR (PAP 38-47) [PAP-derived peptide]
1/20
HIHSTNEVTR (PSMA 345-354) [PSMA-derived peptide]
11/20
KIVIARYGK (PSMA 199-207) [PSMA-derived peptide]
1/20
LYDMSLLKNR (PSA 100-109) [PSA-derived peptide]
7/20
QPWQVLVASR (PSA 36-45) [PSA-derived peptide]
0/20

Hi! Can you tell me IgG reactive to peptide in plasma, Total (positive/tested) for each of these substances?
1. SYKHEQVYIR (PAP 96-105) [PAP-derived peptide]
2. TLKSEEFQKR [PAP 171-180]
3. FQRLGIASGR (PSMA 525-534) [PSMA-derived peptide]
4. PSMA 370-378 (RYVILGGHR; PSMA 370-378)
5. FLLFFWLDR [PAP 20-28]
6. PAP 18-28 (FLFLLFFWLDR; UniProt P15309 18-28, looked up, fragment)

["1/20", "4/20", "11/20", "2/20", "1/20", "0/20"]
